B1: 2K2A (parent)
chain: ELREAFRLYDKEGNGYISTDVMREILAELDETLSSEDLDAMIDEIDADGSGTVDFEEFMGVMT

Variants of: B1
protocol-details: folding stability dG (cDNA display proteolysis); higher = more stable
assay-setup: PBS, room temperature
result-type: folding stability dG (kcal/mol)
Record the value in kcal/mol, omitting the unit from your answer.

Give the measured folding stability dG of L29C .
2.18

// next record S34R
1.47

And what about the variant L8Q ?
2.05

Now the variant I17F
0.818

Same read-out for V61W ?
3.03

Follow-up entry: E4L
1.53

Subsequent entry: D48K
1.57

And E36F ?
1.83

Same question for S50W please.
0.737

What about this variant? V61F
2.75
